Reference for the values: patent US20230110188A1

Biological target: T1, Mouse MuSK as it stands on mouse muscle (neuromuscular junctions, C2C12 myotubes) (mouse, UniProt Q61006 22-868)
T1 sequence (looked up): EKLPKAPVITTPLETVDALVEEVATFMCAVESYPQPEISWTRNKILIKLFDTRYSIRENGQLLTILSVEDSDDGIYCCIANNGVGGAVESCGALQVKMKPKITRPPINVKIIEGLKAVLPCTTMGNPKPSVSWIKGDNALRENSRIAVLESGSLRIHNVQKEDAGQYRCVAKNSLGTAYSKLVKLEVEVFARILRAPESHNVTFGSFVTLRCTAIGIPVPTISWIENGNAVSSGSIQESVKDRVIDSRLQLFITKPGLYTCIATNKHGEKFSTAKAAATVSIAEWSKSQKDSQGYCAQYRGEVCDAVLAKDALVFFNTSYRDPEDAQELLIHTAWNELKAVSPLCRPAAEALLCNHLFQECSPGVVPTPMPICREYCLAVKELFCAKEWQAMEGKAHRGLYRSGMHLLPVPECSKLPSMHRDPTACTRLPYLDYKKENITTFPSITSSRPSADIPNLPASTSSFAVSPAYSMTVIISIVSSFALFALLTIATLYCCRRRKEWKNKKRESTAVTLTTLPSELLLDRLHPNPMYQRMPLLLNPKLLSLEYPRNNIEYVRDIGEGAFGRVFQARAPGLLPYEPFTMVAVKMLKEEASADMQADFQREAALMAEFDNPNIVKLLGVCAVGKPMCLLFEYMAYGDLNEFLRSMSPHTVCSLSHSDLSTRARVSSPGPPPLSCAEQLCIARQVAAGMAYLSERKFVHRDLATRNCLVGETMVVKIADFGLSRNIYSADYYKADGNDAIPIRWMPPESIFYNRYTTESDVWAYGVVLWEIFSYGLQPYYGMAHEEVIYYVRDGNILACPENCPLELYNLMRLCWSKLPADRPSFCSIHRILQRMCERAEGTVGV
Assay: cell-based or functional assay
readoutType: AChR clusters larger or equal to 3 µm compared to agrin; Exp 2, batch Argenx

Ask: So what's the measured AChR clusters larger or equal to 3 µm compared to agrin; Exp 2, batch Argenx for this one? 3D9b (antibody, human IgG1, kappa, L234A L235A, V domains shown) VH: EVQLVESGGGLVKPGGSLRLSCAASGFTFSTYTMHWVRQAPGKGLEWVSSISSRSAYKYYADSVKGRFTISRDNAKNSLYLQMNSLRAEDTAVYYCARDFFQLGPPRFDSWGQGTLVTVSS VL: DIQMTQSPSSLSASVGDRVTITCRASQRISSFLNWYQQKPGKAPKLLIYGASNLQSGVPSRFSGSGSGTDFTLTISSLQPEDFATYYCQQSYSPSYTFGQGTKLEIKR
Result: 95 % of agrin
